These data points were gathered from PubChem BioAssay.

Quick reference for inclusion score among some compounds
# Test protocol: GFP-Q80 aggregate reduction, neuronal-like cells, cell-based, NGF-treated PC12, GFPQ80 (AID 1614);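 further: lower means fewer inclusions and 0 means no inclusions at all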
# Measurement conditions: PC12 NGF-treated GFP-polyQ80 inclusion reduction
A bare number is all that is needed in reply.

1. O=C(CCBr)N1CCN(C(=O)CCBr)CC1    2
2. C[N+]1(CCCCC[N+]2(C)CCCC2)CCCC1    2
3. Cn1c(=O)c2c(ncn2CCO)n(C)c1=O    2
4. Cc1onc(-c2ccccc2Cl)c1C(=O)N[C@@H]1C(=O)N2[C@@H]1SC(C)(C)[C@@H]2C(=O)O    2
5. Cc1cc(CC(=O)O)n(C)c1C(=O)c1ccc(Cl)cc1    2

// inclusion score lookup, key: `CC(=O)Nc1ccccc1`
2

Likewise for CCn1cc(C(=O)O)c(=O)c2cc(F)c(N3CCNC(C)C3)c(F)c21 (configuration not stated) ?
2

Please answer likewise for C=CCc1ccccc1OCC(O)CNC(C)C (configuration not stated)
2

Next record, please: `COc1cc(C(=O)NCc2ccc(OCCN(C)C)cc2)cc(OC)c1OC`
2

// same read-out, input: `Nc1ccc(C(=O)O)c(O)c1`
2

`NC(=O)c1ccccc1O` ?
2

Next: `CC(=O)Oc1ccc(C(c2ccc(OC(C)=O)cc2)c2ccccn2)cc1`
2

====

# System: R275C/beta2Delta
# Test protocol: BK channel mutant inhibitors and activators – cell-based, U2OS BacMam, thallium flux, beta subunits, selectivity assay, profiling panel (AID 1259406);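 further: initial slope of Thallos dye fluorescence rise after thallium is added; log ratio against the mean of 0.3% DMSO vehicle wells on the same plate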
# Measurement conditions: U2OS BacMam BK variants, at 30 µM
The source made the active and inactive calls.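 How the source made its calls: active means thallium flux through the channel raised or lowered by more than 3 SD from vehicle-only wells, actives on both sides; inactive means the rest.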
Respond with a class label; see T (active), F (inactive)

1) CC(=O)OCC(=O)NCCCOc1cccc(CN2CCCCC2)c1    F
2) O=c1[nH]cnc2c1ncn2[C@H]1CC[C@@H](CO)O1    F
3) O=C1Nc2ccc(Cl)cc2[C@@](C#CC2CC2)(C(F)(F)F)O1    T
4) CC(Cc1ccccc1)(NC(=O)CN)c1ccccc1 (stereo not given)    F
5) CN(C)CCCSc1ccccc1NC(=O)/C=C/c1ccccc1    F
6) OCCOCCN1CCN(C2=Nc3ccccc3Sc3ccccc32)CC1    T
7) COc1cc2nc(N3CCN(C(=O)C4COc5ccccc5O4)CC3)nc(N)c2cc1OC (stereo not given)    F
8) Nc1nc(N)nc(-c2cc(Cl)ccc2Cl)n1    F
9) CC(Oc1c(Cl)cccc1Cl)C1=NCCN1 (stereo not given)    F
10) COc1cc2nc(N3CCN(C(=O)C4CCCO4)CC3)nc(N)c2cc1OC (stereo not given)    F

Which outcome was assigned to `COc1ccc(CN2CCN(C(c3ccc(F)cc3)c3ccc(F)cc3)CC2)c(OC)c1OC` in this test?
F

Could you do the same for `O=C1N(c2ccccc2)c2ccccc2C1(Cc1ccncc1)Cc1ccncc1` , please?
F

// query: `C#C[C@]1(O)CC[C@H]2[C@@H]3CCc4cc(OC)ccc4[C@H]3CC[C@@]21C`
F

How about `Nc1nc2c(ncn2CCC(CO)CO)c(=O)[nH]1` ?
F

====

# Test protocol: glutamate transport activators, MN-1 cells, MN-1 cell line (AID 1612);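 further: tested at 1 µM final; 0% = mean of DMSO vehicle wells on each plate; positive means more glutamate uptake than control and negative means less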
# Measurement conditions: MN-1 motor neuron cells, stronger effect = higher value
// glutamate uptake change lookup, one value per entry
Enter the number, and then the unit.

Some compounds with known glutamate uptake change results, for comparison:
1. Cn1c(=O)c2c(ncn2CC(O)CO)n(C)c1=O (stereo not drawn)    0%
2. CCCCCCOc1ccccc1C(N)=O    0.56%
3. COc1ccc(CN(CCN(C)C)c2ncccn2)cc1    -15.6%
4. Cc1cc(C)nc(NS(=O)(=O)c2ccc(N)cc2)n1    2.45%
5. NCCCC(=O)O    -3.42%
6. CCn1cc(C(=O)O)c(=O)c2cc(F)c(N3CCNCC3)nc21    -7.7%
7. CCCCCCCCNC(C)C(O)c1ccc(SC(C)C)cc1 (stereo not drawn)    -7.34%
8. CC1=NN(c2ccccc2)C(=O)C1    -0.14%
9. Oc1c(Cl)cc(Cl)c(Cl)c1Cc1c(O)c(Cl)cc(Cl)c1Cl    -31.4%
10. COCCc1ccc(OCC(O)CNC(C)C)cc1 (stereo not drawn)    -0.51%

// lookup glutamate uptake change for `NC(=O)c1ncn([C@@H]2O[C@H](CO)[C@@H](O)[C@H]2O)c1O`
20.3%

How about `Cc1cc(-c2ccccc2)nnc1NCCN1CCOCC1` ?
4.73%

Then `Oc1ccc(Cl)cc1Cc1cc(Cl)ccc1O` ?
-22.2%
